targetSystem: T1, human CD16A-158F expressed on CHO-K1 cells (human, UniProt P08637 17-254)
T1 construct: whole, on cells
T1 sequence (P08637 17-254): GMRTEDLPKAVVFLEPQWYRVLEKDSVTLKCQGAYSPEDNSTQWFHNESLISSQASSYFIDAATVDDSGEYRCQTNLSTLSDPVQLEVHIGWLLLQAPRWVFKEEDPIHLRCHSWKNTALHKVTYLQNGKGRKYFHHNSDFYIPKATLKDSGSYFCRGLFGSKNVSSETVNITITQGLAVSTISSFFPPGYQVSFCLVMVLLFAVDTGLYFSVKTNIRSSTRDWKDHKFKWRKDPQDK
assay: flow cytometry, CHO-K1-hCD16A-158F cells, geometric mean
Description: In order to evaluate the binding activity of the chimeric mAbs to human CD16A expressed on cells, cell-based binding assay was employed as followed. […] The antibodies binding to the antigen on the cell surface were detected with PE fluorophore-conjugated anti-human IgG Fc secondary antibodies (ThermoFisher scientific, Cat. No. 12-4998-82) at a dilution rate of 1:1000. Cells were analyzed by flow cytometer LSRFortessa Cell Analyzer (BD Biosciences). Data were analyzed with Flowjo 10.0 software. […]
observedProperty: EC50 (read off the curve)

Worked examples, 2 binders total:
binder	observedProperty	resultValue
45H6E8-z19p1 (antibody, V domains shown, PTM-removed (N to Q in VH CDR2) version of z19) VH: QVQLVQSGAEVKKPGASVKVSCKVSGYTLTDYYMQWVRQAPGKGLEWIGWIDPEQGDTEYAPKFQGRVTMTADTSTDTAYMELSSLRSEDTAVYYCTTGGNYVDWGQGTTVTVSS VL: DIQMTQSPSFLSASVGDRVTITCKASQNVGTAVAWYQQKPGKAPKLLIYSASNRYTGVPDRFSGSGSGTDFTLTISSLQPEDFATYFCQQYSSYPLLTFGQGTRLEIK	EC50 (read off the curve)	~0.4 nM
45H6E8-z20p1 (antibody, V domains shown, PTM-removed version of z20) VH: QVQLVQSGAEVKKPGASVKVSCKVSGYTLTDYYMQWVRQAPGKGLEWMGWIDPEQGDTEYAPKFQGRATMTADTSTDTAYMELSSLRSEDTAVYYCTTGGNYVDWGQGTTVTVSS VL: DIQMTQSPSFLSASVGDRVTITCKASQNVGTAVAWYQQKPGKAPKLLIYSASNRYTGVPDRFSGSGSGTDFTLTISSLQPEDFATYFCQQYSSYPLLTFGQGTRLEIK	EC50 (read off the curve)	~0.4 nM

Let's switch to this binder now.
**Q:** For the binder 45H6E8-z20 (antibody, human IgG1, V domains shown, Human IgG1 LALAPG constant region; also called HU-VH1-7 / HU-VL1-3) VH: QVQLVQSGAEVKKPGASVKVSCKVSGYTLTDYYMQWVRQAPGKGLEWMGWIDPENGDTEYAPKFQGRATMTADTSTDTAYMELSSLRSEDTAVYYCTTGGNYVDWGQGTTVTVSS VL: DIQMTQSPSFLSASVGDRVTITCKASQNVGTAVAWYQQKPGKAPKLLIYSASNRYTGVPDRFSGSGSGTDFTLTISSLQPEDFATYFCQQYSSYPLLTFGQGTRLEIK , what EC50 (read off the curve) is on record?
**A:** ~0.4 nM
